System: HL-60
Assay: NCI tumour cell line growth inhibition, 48 h
Active and inactive are the calls of the source. Cut-off read from the data, not from the text of the source: active = GI50 up to about 1.1 µM and inactive = higher.
MEASUREMENT TYPE: GI50

Completed entries (count: 4):
O=C1CC(c2n[nH]c3ccccc23)C(=O)N1c1ccccc1 (configuration not stated) : 25.6 µM (inactive)
Cc1ccc(N(C(=O)CC(=O)NN)C(=O)c2ccccc2Cl)cc1 : > 100 µM (inactive)
O=C(c1ccccc1)N1C(=O)N(c2ccccc2)C(=N/c2ccccc2)/C1=N\c1ccccc1 : > 100 µM (inactive)
O=C(O)CC12C3C4C5C3C1C5C42 (configuration not stated) : > 100 µM (inactive)

q: Report GI50 for Cc1n[nH]c(N)c1C(N)=O please.
a: > 100 µM (inactive)

q: Report GI50 for C#CCOc1c(C(=O)OCC)c(=O)n(C)c2ccccc12 please.
a: > 100 µM (inactive)

q: Report GI50 for NCC1(N2CCOCC2)C2CCCC21CNc1ccccc1 (configuration not stated) please.
a: 53.8 µM (inactive)

###

The following molecules are listed with their measured GI50 values.
Tested on: NCI-H460
Test: NCI tumour cell line growth inhibition, 48 h
Structures can show the parent of a compound that is named as a salt. The source made the active and inactive calls. No stated cut-off is given here; in the data, active = GI50 up to about 1.1 µM and inactive = higher.

q: Report GI50 for CCn1c2nc(=O)n(CCCCCCCCSC(c3ccccc3)(c3ccccc3)c3ccccc3)c(=O)c-2nc2ccccc21 please.
a: 4.62 µM (inactive)

q: Report GI50 for CC1(C)OC(=O)C(c2cccs2)C(=O)O1 please.
a: > 100 µM (inactive)

q: Report GI50 for CSC1=Nc2ccccc2N=C(c2ccc(Cl)cc2)C1 please.
a: 40.2 µM (inactive)

q: Report GI50 for NCCCCNCCCN [SPERMIDINE TRIHYDROCHLORIDE] please.
a: > 100 µM (inactive)

q: Report GI50 for Nc1nc2c(c(=O)[nH]1)C(c1ccccc1)CC(=O)N2 (stereo not drawn) please.
a: > 100 µM (inactive)

q: Report GI50 for CCc1c(OC(C)=O)c2c(NC3OCC(OC(C)=O)C(OC(C)=O)C3OC(C)=O)nc(SC)nc2oc1=O (stereo not drawn) please.
a: > 100 µM (inactive)

q: Report GI50 for COc1cccc2cc(C(=O)O)c(=O)oc12 please.
a: > 100 µM (inactive)

q: Report GI50 for O/N=C1/CCCc2nonc21 please.
a: > 100 µM (inactive)

###

System: NCI-H23
Experiment: NCI tumour cell line growth inhibition, 48 h
Active and inactive are the calls of the source. Cut-off read from the data, not from the text of the source: active = GI50 up to about 1.1 µM and inactive = higher.
The following compounds are listed with their measured GI50 values.

CC1=C(C)C1[N+](=O)[O-] : > 100 µM (inactive)

q: Report GI50 for CC(SC1=CC(=O)c2c(Cl)ccc(O)c2C1=O)C(=O)O (stereo not drawn) please.
a: > 10 µM (inactive)

q: Report GI50 for Cc1ccc(Nc2nc3[nH]ccc3c(=O)[nH]2)cc1 please.
a: > 100 µM (inactive)

q: Report GI50 for CN(C)CCCOc1ccc(/C=C2/CCC/C(=C/c3ccc(OCCCN(C)C)cc3)C2=O)cc1 please.
a: 1.74 µM (inactive)

q: Report GI50 for COCOC1C=CCCCC2=CC(C)=C(CC1)O2 (stereo not drawn) please.
a: > 100 µM (inactive)

q: Report GI50 for C#CCOc1c(C(=O)OCC)c(=O)n(C)c2ccccc12 please.
a: > 100 µM (inactive)

q: Report GI50 for C=C1C(=O)C23CC1CCC2C12CO[C@@H]4OCC(C)(CC[C@@H]1OC3=O)C42 (stereo partly drawn) please.
a: 6.04 µM (inactive)

q: Report GI50 for CCCCn1c(CSc2ccc(Cl)cc2)c(C(=O)OCC)c2cc(OC)c(Br)cc21 please.
a: > 100 µM (inactive)

q: Report GI50 for COC(=O)c1c(O)ccc2c1c1c(n2CCc2ccc(OC)c(OC)c2)C(=O)c2ccccc2C1=O please.
a: 15.6 µM (inactive)

q: Report GI50 for c1ccc(CNCCCNCCCCNCCCNCc2ccccc2)cc1 please.
a: 2.38 µM (inactive)

q: Report GI50 for O=C(N/N=C/c1cccc(F)c1)c1ccncc1 please.
a: > 100 µM (inactive)

q: Report GI50 for CS(=O)(=O)Nc1ccc(NCc2c[nH]c3ccc4ncccc4c23)cc1 please.
a: 14.1 µM (inactive)

q: Report GI50 for CC1=CC2C3(C)C(C)(C(C)=CP3(=O)c3c(C(C)C)cc(C(C)C)cc3C(C)C)C1P2(=O)c1c(C(C)C)cc(C(C)C)cc1C(C)C (stereo not drawn) please.
a: 1.6 µM (inactive)
